target: TDP-43 (Homo sapiens, UniProt Q13148 1-414); test: RNA Bind-n-Seq with designed 260-mer pool; 25 mM Tris-HCl, 150 mM KCl, 3 mM MgCl2, BSA (printed 500 mg/mL), 20 units/mL SUPERase IN; pH not stated; 500 nM RNA pool, 1 h, 4 C; TDP-43 5, 50, 500 nM; high values mean tight binding; settings: protein: recombinant; tags: SBP (GST cleaved off with PreScission; pGEX-GST-SBP)
Sequence (Q13148 whole entry): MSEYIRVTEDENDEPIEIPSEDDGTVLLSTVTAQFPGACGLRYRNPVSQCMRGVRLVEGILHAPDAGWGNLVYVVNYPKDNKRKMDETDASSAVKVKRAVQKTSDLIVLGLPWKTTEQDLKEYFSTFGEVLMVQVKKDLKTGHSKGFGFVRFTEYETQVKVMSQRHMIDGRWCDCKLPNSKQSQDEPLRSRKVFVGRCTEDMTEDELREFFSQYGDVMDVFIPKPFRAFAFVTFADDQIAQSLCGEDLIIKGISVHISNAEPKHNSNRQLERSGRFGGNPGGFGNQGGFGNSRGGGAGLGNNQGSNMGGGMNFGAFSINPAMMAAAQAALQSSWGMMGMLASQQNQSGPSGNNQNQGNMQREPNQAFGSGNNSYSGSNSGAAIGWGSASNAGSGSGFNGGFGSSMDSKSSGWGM
In all, about 9,900 sequences were measured (“r (bound/input frequency ratio)”: median about 0.7, highest 2% from about 6.5 on). This is one part of a sample in which the highest values are shown more often than they occur.
Task for the reader: assign each of the following binders its reported binding signal.

Example entries and their recorded answers appear below.
ENSMUSG00000031028.484|Tub (ssRNA) RNA: GGGAGUUCUACAGUCCGACGAUCGCUUCGAUAUCCGCAUGCUAGGAAGUGUGUUGUCAGUUCACUGGAGGAGGAGCUGAGAUGUGCACCCUUUUAAAUGAACAUGGGGUGGUGAUGGUGCCUUAACAAUCUUGACACUAAGGUGAAGCAAGCAAGUAAGGUGUGUGCCUCUGGGAAGACAGGAGUCGGAAGCCAAGGUGUGUGGCAACAGUCUGGAAGAGAGCUUUUGGUAAUCAUACCGUCUUCAGUGACAAGGCAACAAUGCUGUAAAGUGGGUUUGUUUGGUUUUGUUUUUUCUUUCUCUCUCUUGCGGUCGCACUAGUGUGGAAUUCUCGGGUGUCAAGG :: 4.79 R (bound/input frequency ratio)
ENSMUSG00000061578.1396|Ksr2 (ssRNA) RNA: GGGAGUUCUACAGUCCGACGAUCGCUUCGAUAUCCGCAUGCUAAAGUAUAUAUACCUAUAAAUGCUAUAUAUAUUAUAUAUGUGUAUAUACAUAAAGACUACUUCUUGUACAGCCCUCCACGGACCUCAGGCCCACUGUUUUCUCCAUGUCUGUCUGUACUGACUGUUGCAGAAUGAGCUGAUGUAUGAUCUUGAUUCUCCAUUUUCCUUCUGGACCACAUGUCUCUUCCUUUUCCUUUUUAGAUCUGUCUUGCUCUCUGUCUCUCUCACUCAUUGCCAACAUGUUGCUGGGAAAGAAUAUUUCUCUUGCGGUCGCACUAGUGUGGAAUUCUCGGGUGUCAAGG :: 0.176 R (bound/input frequency ratio)
ENSMUSG00000058297.290|Spock2 (ssRNA) RNA: GGGAGUUCUACAGUCCGACGAUCGCUUCGAUAUCCGCAUGCUAAGAGAGAGAGAGAGAGAGAAAGAGAGAGAGAAUGAGAGAGAAUGAGAGAGAGAAUACCCGAGGGCCACCCUGAUGCCCAGGAAGAGUGAGGGCAGCCCCCUGUGUGGUGGAAGAGGCUGGGCAGCUAGCUACUGGGGACCUUGUGCUGAGGCUUCCAGGACAAAGCCCCAGUCUGGCUCUCCCCCAGCCUCUCAGGGGCACUGGCUGGUCACAUCCACUGAGUAUUGAUCGGUUGGACUUUAGGGAAGAGCCUCCUCCUUCUCUUGCGGUCGCACUAGUGUGGAAUUCUCGGGUGUCAAGG :: 8.79 R (bound/input frequency ratio)
ENSMUSG00000058297.289|Spock2 (ssRNA) RNA: GGGAGUUCUACAGUCCGACGAUCGCUUCGAUAUCCGCAUGCUAAGAGAGAGAGAGAGAGAGAGAGAGAAAGAGAGAGAGAAUGAGAGAGAAUGAGAGAGAGAAUACCCGAGGGCCACCCUGAUGCCCAGGAAGAGUGAGGGCAGCCCCCUGUGUGGUGGAAGAGGCUGGGCAGCUAGCUACUGGGGACCUUGUGCUGAGGCUUCCAGGACAAAGCCCCAGUCUGGCUCUCCCCCAGCCUCUCAGGGGCACUGGCUGGUCACAUCCACUGAGUAUUGAUCGGUUGGACUUUAGGGAAGAGCCUCCUCUUGCGGUCGCACUAGUGUGGAAUUCUCGGGUGUCAAGG :: 7.91 R (bound/input frequency ratio)
ENSMUSG00000061578.153|Ksr2|12:16;34:49;85:89 (ssRNA) RNA: GGGAGUUCUACAGUCCGACGAUCGCUUCGAUAUCCGCAUGCUAGACGGUCCUGGCAUACCAUGAUGGGUUACAUGGCACACACACACACACAAACUGUUUACAAUGGUCUCCCUGCCUCUCACGGGCACACAUCCAGGAGAAUGCACAUAGAGAGGUUCUGUGGUCUCUGCUGUCGCCUGGUGCUGAAUCCUGAGUGGUUUCCCCACUGAGGACCCUGUGACCCUGUGACCCUUGGCCCCUCCCUUAUUGUGCACACUCAGCACCCCAUCUUCCAAGCCUUUCUUCAUCCCCCACCUUCUUUUCUCUUGCGGUCGCACUAGUGUGGAAUUCUCGGGUGUCAAGG :: 1.47 R (bound/input frequency ratio)

Dear reader, for each entry below, please note its binding signal.
1. ENSMUSG00000031028.478|Tub (ssRNA) RNA: GGGAGUUCUACAGUCCGACGAUCGCUUCGAUAUCCGCAUGCUACUCUUUCUCCCAUGGUUCUGAGCAGGCGACUGUCAAGGAAGUGUGUUGUCAGUUCACUGGAGGAGGAGCUGAGAUGUGCACCCUUUUAAAUGAACAUGGGGUGGUGAUGGUGCCUUAACAAUCUUGACACUAAGGUGAAGCAAGCAAGUAAGGUGUGUGCCUCUGGGAAGACAGGAGUCGGAAGCCAAGGUGUGUGGCAACAGUCUGGAAGAGAGCUUUUGGUAAUCAUACCGUCUUCAGUGACAAGGCAACAAUGCUGUCUCUUGCGGUCGCACUAGUGUGGAAUUCUCGGGUGUCAAGG
2. ENSMUSG00000031028.94|Tub (ssRNA) RNA: GGGAGUUCUACAGUCCGACGAUCGCUUCGAUAUCCGCAUGCUAAGCUCUGGUGGUCAGCAGAAAGCACUCCCACUUCAAAAGGGCCCAUUAGGCCCAAAGGGGGUUAGGAGUGGUAGGGAUAGGUGCGUGGCAGGUCCCUGCUAGGAUUGCAGGGGCCUGGCCAUGUGUAUUAGCUGGAGGCUUAGAAUGCUAGCUCAUUUGUUGCUACAGAUUUGCCCAGUGCUUGCACACGUAAGAACCCAGCUCUCAAGGCCAAAUAUCUGAGUGGAUGGGGAUGAUAGGAGUCAUCCAGUAGACUCCCUCUCUUGCGGUCGCACUAGUGUGGAAUUCUCGGGUGUCAAGG

Data returned:
["2.52 R (bound/input frequency ratio)", "0.759 R (bound/input frequency ratio)"]
